# Tested System: Pdr3 (UniProt P33200)
# Sequence: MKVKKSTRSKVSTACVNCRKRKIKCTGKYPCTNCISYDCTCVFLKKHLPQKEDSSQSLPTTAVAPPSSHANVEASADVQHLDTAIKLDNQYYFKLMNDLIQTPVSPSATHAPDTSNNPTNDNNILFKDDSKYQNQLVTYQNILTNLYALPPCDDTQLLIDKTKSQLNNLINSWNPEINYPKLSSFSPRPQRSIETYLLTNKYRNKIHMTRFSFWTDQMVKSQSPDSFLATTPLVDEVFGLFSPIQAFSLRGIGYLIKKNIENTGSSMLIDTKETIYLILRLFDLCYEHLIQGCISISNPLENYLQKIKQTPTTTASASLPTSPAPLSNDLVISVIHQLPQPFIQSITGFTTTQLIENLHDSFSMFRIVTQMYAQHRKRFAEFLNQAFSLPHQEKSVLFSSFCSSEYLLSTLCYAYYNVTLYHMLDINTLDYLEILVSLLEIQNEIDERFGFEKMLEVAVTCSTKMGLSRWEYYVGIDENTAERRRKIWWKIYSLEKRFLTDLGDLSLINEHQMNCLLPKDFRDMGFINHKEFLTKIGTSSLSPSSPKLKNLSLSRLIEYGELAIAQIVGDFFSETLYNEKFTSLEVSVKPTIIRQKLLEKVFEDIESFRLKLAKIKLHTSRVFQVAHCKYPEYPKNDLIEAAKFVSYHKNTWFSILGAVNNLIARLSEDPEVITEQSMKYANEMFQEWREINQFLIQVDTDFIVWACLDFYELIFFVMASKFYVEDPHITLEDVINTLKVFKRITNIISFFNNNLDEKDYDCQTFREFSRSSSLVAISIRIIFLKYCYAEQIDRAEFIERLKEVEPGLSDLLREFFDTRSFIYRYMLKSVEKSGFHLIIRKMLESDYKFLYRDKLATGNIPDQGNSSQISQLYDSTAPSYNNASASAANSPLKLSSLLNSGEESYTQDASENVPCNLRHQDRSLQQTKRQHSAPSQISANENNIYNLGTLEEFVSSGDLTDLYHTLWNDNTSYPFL
# Test Details: PBM E-score (8-mer binding enrichment) (E-score (-0.5 to 0.5)); higher = stronger / more preferred TF binding
# Test Conditions: protein concentration: 200 nM; construct: GST-full length
In all, about 33,000 sequences were measured (“E-score (-0.5 to 0.5)”: median about -0.035, highest 2% from about 0.35 on). The entries come from a sample that favours the highest values as a whole.
Readout Kind: PBM E-score
Answers are plain numbers.

Example entries begin here.
| Residues | PBM E-score |
| --- | --- |
| CGCCGGGC | 0.308 |
| ACTCTGCA | -0.125 |
| CTCAAACC | -0.0558 |

Below are 6 sequences. Give each one its PBM E-score.
1. CTTGCGGA
2. CACGGGAA
3. GGGAGATA
4. AAGAAATC
5. AGATGGAG
6. CCGGGTTC

1. 0.137
2. 0.223
3. 0.0536
4. -0.104
5. -0.127
6. 0.411

Below are 4 sequences. Give each one its PBM E-score.
1. GGCCGGTA
2. CGGAGATA
3. AGTTGCAC
4. ACCGGGCA

1: 0.274; 2: 0.386; 3: -0.136; 4: 0.102

Below are 3 sequences. Give each one its PBM E-score.
1. GCGAGAAA
2. ACGGGTTC
3. AACTGCGC

-0.0403
0.202
-0.146

Below are 7 sequences. Give each one its PBM E-score.
1. ATACCGCC
2. ATGTACCG
3. GGCCGGGA
4. ACGTAGCT
5. CCGGGTTA
6. ACGCGGAC
7. ACGGTGAA

[0.212, -0.0139, 0.39, -0.31, 0.353, 0.229, -0.0181]
